PROTOCOL DESCRIPTION: excess molar enthalpy (molar enthalpy of mixing); xn = mol fraction of the nth substance listed
CONDITION DESCRIPTION: 298.15 K; 101 kPa; Liquid; Calvet calorimetry; x1 = 0.4
READOUT LABEL: excess molar enthalpy (kcal/mol)

MOLECULE: FC(F)(F)C(F)(F)C(F)(F)C(F)(F)C(F)(F)C(F)(F)F [perfluorohexane] + CCCCCCCC
UNIT DESCRIPTOR: kcal/mol
excess molar enthalpy: 0.452
--
MOLECULE: FC(F)(F)C(F)(F)C(F)(F)C(F)(F)C(F)(F)C(F)(F)F [perfluorohexane] + CCCCCC
UNIT DESCRIPTOR: kcal/mol
excess molar enthalpy: 0.49
--
MOLECULE: FC(F)(F)C(F)(F)C(F)(F)C(F)(F)C(F)(F)C(F)(F)C(F)(F)F [hexadecafluoroheptane] + CCCCCC
UNIT DESCRIPTOR: kcal/mol
excess molar enthalpy: 0.487
--
MOLECULE: FC(F)(F)C(F)(F)C(F)(F)C(F)(F)C(F)(F)C(F)(F)F [perfluorohexane] + CCCCCCC
UNIT DESCRIPTOR: kcal/mol
excess molar enthalpy: 0.504
--
MOLECULE: FC(F)(F)C(F)(F)C(F)(F)C(F)(F)C(F)(F)C(F)(F)F [perfluorohexane] + C1CCCCC1
UNIT DESCRIPTOR: kcal/mol
excess molar enthalpy: 0.522
--
MOLECULE: FC(F)(F)C(F)(F)C(F)(F)C(F)(F)C(F)(F)C(F)(F)C(F)(F)C(F)(F)F [octadecafluorooctane] + CCCCCC
UNIT DESCRIPTOR: kcal/mol
excess molar enthalpy: 0.453

====

PROTOCOL DESCRIPTION: excess molar enthalpy (molar enthalpy of mixing); xn = mol fraction of the nth substance listed
CONDITION DESCRIPTION: 298.15 K; 101 kPa; Liquid; Calvet calorimetry; x1 = 0.1
READOUT LABEL: excess molar enthalpy (kcal/mol)

COMPOUND: FC(F)(F)C(F)(F)C(F)(F)C(F)(F)C(F)(F)C(F)(F)F [perfluorohexane] + CCCCCCCC
UNIT DESCRIPTOR: kcal/mol
excess molar enthalpy: 0.24

COMPOUND: FC(F)(F)C(F)(F)C(F)(F)C(F)(F)C(F)(F)C(F)(F)C(F)(F)F [hexadecafluoroheptane] + CCCCCC
UNIT DESCRIPTOR: kcal/mol
excess molar enthalpy: 0.258

COMPOUND: FC(F)(F)C(F)(F)C(F)(F)C(F)(F)C(F)(F)C(F)(F)C(F)(F)C(F)(F)F [octadecafluorooctane] + CCCCCC
UNIT DESCRIPTOR: kcal/mol
excess molar enthalpy: 0.303

COMPOUND: FC(F)(F)C(F)(F)C(F)(F)C(F)(F)C(F)(F)C(F)(F)F [perfluorohexane] + CCCCCC
UNIT DESCRIPTOR: kcal/mol
excess molar enthalpy: 0.235

COMPOUND: FC(F)(F)C(F)(F)C(F)(F)C(F)(F)C(F)(F)C(F)(F)F [perfluorohexane] + C1CCCCC1
UNIT DESCRIPTOR: kcal/mol
excess molar enthalpy: 0.301

COMPOUND: FC(F)(F)C(F)(F)C(F)(F)C(F)(F)C(F)(F)C(F)(F)F [perfluorohexane] + CCCCCCC
UNIT DESCRIPTOR: kcal/mol
excess molar enthalpy: 0.24

====

PROTOCOL DESCRIPTION: excess molar enthalpy (molar enthalpy of mixing); xn = mol fraction of the nth substance listed
CONDITION DESCRIPTION: 298.15 K; 101 kPa; Liquid; Calvet calorimetry; x1 = 0.95
READOUT LABEL: excess molar enthalpy (kJ/mol)

# count of solved cases: 2
COMPOUND: FC(F)(F)C(F)(F)C(F)(F)C(F)(F)C(F)(F)C(F)(F)F [perfluorohexane] + CCCCCC
UNIT DESCRIPTOR: kJ/mol
EXPERIMENTAL VALUE: 0.462

COMPOUND: FC(F)(F)C(F)(F)C(F)(F)C(F)(F)C(F)(F)C(F)(F)F [perfluorohexane] + CCCCCCC
UNIT DESCRIPTOR: kJ/mol
EXPERIMENTAL VALUE: 0.517

A = FC(F)(F)C(F)(F)C(F)(F)C(F)(F)C(F)(F)C(F)(F)F [perfluorohexane] + CCCCCCCC
B = FC(F)(F)C(F)(F)C(F)(F)C(F)(F)C(F)(F)C(F)(F)C(F)(F)C(F)(F)F [octadecafluorooctane] + CCCCCC
Q) Please choose the item with the lower excess molar enthalpy value from this pair: A and B Please respond with the label that marks your chosen entry.
A) B
(B: 0.321 kJ/mol, A: 0.557 kJ/mol)

====

PROTOCOL DESCRIPTION: excess molar enthalpy (molar enthalpy of mixing); xn = mol fraction of the nth substance listed
CONDITION DESCRIPTION: 298.15 K; 101 kPa; Liquid; Calvet calorimetry; x1 = 0.45
READOUT LABEL: excess molar enthalpy (kcal/mol)

MOLECULE: FC(F)(F)C(F)(F)C(F)(F)C(F)(F)C(F)(F)C(F)(F)F [perfluorohexane] + CCCCCCC
UNIT DESCRIPTOR: kcal/mol
EXPERIMENTAL VALUE: 0.513
//
MOLECULE: FC(F)(F)C(F)(F)C(F)(F)C(F)(F)C(F)(F)C(F)(F)F [perfluorohexane] + CCCCCC
UNIT DESCRIPTOR: kcal/mol
EXPERIMENTAL VALUE: 0.5
//
MOLECULE: FC(F)(F)C(F)(F)C(F)(F)C(F)(F)C(F)(F)C(F)(F)C(F)(F)F [hexadecafluoroheptane] + CCCCCC
UNIT DESCRIPTOR: kcal/mol
EXPERIMENTAL VALUE: 0.495
//
MOLECULE: FC(F)(F)C(F)(F)C(F)(F)C(F)(F)C(F)(F)C(F)(F)F [perfluorohexane] + CCCCCCCC
UNIT DESCRIPTOR: kcal/mol
EXPERIMENTAL VALUE: 0.457
//
MOLECULE: FC(F)(F)C(F)(F)C(F)(F)C(F)(F)C(F)(F)C(F)(F)F [perfluorohexane] + C1CCCCC1
UNIT DESCRIPTOR: kcal/mol
EXPERIMENTAL VALUE: 0.528
//
MOLECULE: FC(F)(F)C(F)(F)C(F)(F)C(F)(F)C(F)(F)C(F)(F)C(F)(F)C(F)(F)F [octadecafluorooctane] + CCCCCC
UNIT DESCRIPTOR: kcal/mol
EXPERIMENTAL VALUE: 0.448

====

PROTOCOL DESCRIPTION: excess molar enthalpy (molar enthalpy of mixing); xn = mol fraction of the nth substance listed
CONDITION DESCRIPTION: 298.15 K; 101 kPa; Liquid; Calvet calorimetry; x1 = 0.75
READOUT LABEL: excess molar enthalpy (kcal/mol)

COMPOUND: FC(F)(F)C(F)(F)C(F)(F)C(F)(F)C(F)(F)C(F)(F)C(F)(F)C(F)(F)F [octadecafluorooctane] + CCCCCC
UNIT DESCRIPTOR: kcal/mol
excess molar enthalpy: 0.327

COMPOUND: FC(F)(F)C(F)(F)C(F)(F)C(F)(F)C(F)(F)C(F)(F)F [perfluorohexane] + CCCCCCCC
UNIT DESCRIPTOR: kcal/mol
excess molar enthalpy: 0.401

COMPOUND: FC(F)(F)C(F)(F)C(F)(F)C(F)(F)C(F)(F)C(F)(F)F [perfluorohexane] + CCCCCC
UNIT DESCRIPTOR: kcal/mol
excess molar enthalpy: 0.401

COMPOUND: FC(F)(F)C(F)(F)C(F)(F)C(F)(F)C(F)(F)C(F)(F)F [perfluorohexane] + C1CCCCC1
UNIT DESCRIPTOR: kcal/mol
excess molar enthalpy: 0.436

COMPOUND: FC(F)(F)C(F)(F)C(F)(F)C(F)(F)C(F)(F)C(F)(F)C(F)(F)F [hexadecafluoroheptane] + CCCCCC
UNIT DESCRIPTOR: kcal/mol
excess molar enthalpy: 0.4

COMPOUND: FC(F)(F)C(F)(F)C(F)(F)C(F)(F)C(F)(F)C(F)(F)F [perfluorohexane] + CCCCCCC
UNIT DESCRIPTOR: kcal/mol
excess molar enthalpy: 0.421

====

PROTOCOL DESCRIPTION: excess molar enthalpy (molar enthalpy of mixing); xn = mol fraction of the nth substance listed
CONDITION DESCRIPTION: 298.15 K; 101 kPa; Liquid; Calvet calorimetry; x1 = 0.85
READOUT LABEL: excess molar enthalpy (kcal/mol)

MOLECULE: FC(F)(F)C(F)(F)C(F)(F)C(F)(F)C(F)(F)C(F)(F)C(F)(F)C(F)(F)F [octadecafluorooctane] + CCCCCC
excess molar enthalpy / kcal/mol: 0.22
//
MOLECULE: FC(F)(F)C(F)(F)C(F)(F)C(F)(F)C(F)(F)C(F)(F)C(F)(F)F [hexadecafluoroheptane] + CCCCCC
excess molar enthalpy / kcal/mol: 0.281
//
MOLECULE: FC(F)(F)C(F)(F)C(F)(F)C(F)(F)C(F)(F)C(F)(F)F [perfluorohexane] + CCCCCCCC
excess molar enthalpy / kcal/mol: 0.309
//
MOLECULE: FC(F)(F)C(F)(F)C(F)(F)C(F)(F)C(F)(F)C(F)(F)F [perfluorohexane] + CCCCCCC
excess molar enthalpy / kcal/mol: 0.307
//
MOLECULE: FC(F)(F)C(F)(F)C(F)(F)C(F)(F)C(F)(F)C(F)(F)F [perfluorohexane] + CCCCCC
excess molar enthalpy / kcal/mol: 0.285
//
MOLECULE: FC(F)(F)C(F)(F)C(F)(F)C(F)(F)C(F)(F)C(F)(F)F [perfluorohexane] + C1CCCCC1
excess molar enthalpy / kcal/mol: 0.311
